# System: PBMC (human peripheral blood mononuclear cells)
# experiment_description: Cytotoxicity, alamar blue assay
# Type: cell-based
# measurement_context: Homo sapiens, PBMC, non-cancer cells, 72 h, read-out: IC50 and 95% CI, PBMC
measure_name: pIC50
API: returns pIC50 as number; meaning -log10 of concentration in mol/L.

stdin: Which measured pIC50 value corresponds to COc1cccc2c1C(=O)c1c(O)c3c(c(O)c1C2=O)C[C@@](O)(C(=O)CO)C[C@@H]3O[C@H]1C[C@H](N)[C@H](O)[C@H](C)O1 [doxorubicin, reference compound] ?
stdout: 5.29
